I'd appreciate it if you could supply pKi values for the items below.
- Target under test: Human plasma kallikrein (human, UniProt P03952)
- Test protocol: enzyme inhibition of plasma kallikrein, substrate S2302, fit to the tight-binding equation (apparent Ki*)
One number for each entry, as −log10 of the molar value.

Consider the reported pKi for these binders:
KALI-30 (designed binder) VREVCSEQAEEGHCRAAILRWYFDVTEGKCAPFFYGGCGGNRNNFDTEEYCAAVCGSA = 9.59
KALI-8 (designed binder) VREVCSEQAELGHCRAAIPRWYFDVTEGKCAPFFYGGCGGNRNNFDTEEYCAAVCGSA = 10.13
KALI-13 (designed binder) VREVCSEQAESGHCRAAIPRWYFDVTEGKCAPFFYGGCGGNRNNFDTEEYCAAVCGSA = 9.69

Value sought for every listed binder: pKi.
1. KALI-48 (designed binder) VREVCSEQAETGHCRAAIPRWYFDVTEGKCAPFFYGGCGGNRNNFDTEEYCAAVCGSA
2. KALI-46 (designed binder) VREVCSEQAEEGRCRASILRWYFDVTEGKCAPFFYGGCGGNRNNFDTEEYCAAVCGSA

Result block:
1: 9.68; 2: 9.76
